- study target: Keap1 (Homo sapiens (Human), UniProt Q14145)
- Sequence (Q14145 whole entry): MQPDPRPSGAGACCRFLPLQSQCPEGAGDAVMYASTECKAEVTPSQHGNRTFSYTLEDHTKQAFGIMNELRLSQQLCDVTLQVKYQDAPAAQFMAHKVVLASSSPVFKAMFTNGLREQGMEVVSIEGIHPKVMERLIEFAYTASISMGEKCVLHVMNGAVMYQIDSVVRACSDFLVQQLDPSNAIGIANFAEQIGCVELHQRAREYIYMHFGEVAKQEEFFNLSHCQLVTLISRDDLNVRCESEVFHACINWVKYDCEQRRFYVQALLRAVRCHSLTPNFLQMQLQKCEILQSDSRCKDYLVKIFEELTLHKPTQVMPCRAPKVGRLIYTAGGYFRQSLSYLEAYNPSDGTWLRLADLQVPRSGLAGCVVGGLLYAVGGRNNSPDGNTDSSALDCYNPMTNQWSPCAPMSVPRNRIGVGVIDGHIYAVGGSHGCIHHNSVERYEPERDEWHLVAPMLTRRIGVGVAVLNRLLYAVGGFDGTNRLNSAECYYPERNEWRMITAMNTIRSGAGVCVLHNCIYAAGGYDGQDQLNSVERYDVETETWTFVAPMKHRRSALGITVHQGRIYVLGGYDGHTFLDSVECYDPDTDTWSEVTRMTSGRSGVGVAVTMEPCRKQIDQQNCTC
- assay explanation: HEK293 ARE luciferase assay
- conditions: HEK-293 ARE firefly luciferase transiently transfected cells; 18 h incubation; mean of 1 to 20 individual measurements
The following compounds are listed with their measured EC50 values.
observation type: EC50 (µM)

- compound: "COC1(c2ncc(F)cc2-c2cnn(C)c2C)C=C(C#N)C(=O)C(C)(C)C1 (single isomer, unassigned) [Compound 71]"
  obs value: 0.009
- compound: "COC1(c2ncc(F)cc2-c2cncc(F)c2)C=C(C#N)C(=O)C(C)(C)C1 (single isomer, unassigned) [Compound 84]"
  obs value: 0.006
- compound: "COC1(c2ccc(C)nc2)C=C(C#N)C(=O)C(C)(C)C1 (stereo not shown)"
  obs value: 0.66
- compound: "COC1(c2ncc(F)cc2-c2cnn(C)c2)C=C(C#N)C(=O)C(C)(C)C1 (stereo not shown) [Compound 161]"
  obs value: 0.014
- compound: "COC1(c2cccc(-c3ccnn3C)n2)C=C(C#N)C(=O)C(C)(C)C1 (stereo not shown)"
  obs value: 0.12
- compound: "COC1(c2ncccc2C(F)(F)F)C=C(C#N)C(=O)C(C)(C)C1 (stereo not shown) [Compound 122]"
  obs value: 0.043
- compound: "CCc1cncc(-c2cc(F)cnc2C2(OC)C=C(C#N)C(=O)C(C)(C)C2)c1 (single isomer, unassigned)"
  obs value: 0.006
- compound: "CCOC1(c2ccc(F)cn2)C=C(C#N)C(=O)C(C)(C)C1 (stereo not shown) [Compound 145]"
  obs value: 0.065
- compound: "COC1(c2cc(C(F)(F)F)ccn2)C=C(C#N)C(=O)C(C)(C)C1 (stereo not shown)"
  obs value: 0.408
- compound: "COC1(c2cccnc2Cl)C=C(C#N)C(=O)C(C)(C)C1 (stereo not shown)"
  obs value: 0.265
- compound: "COC1(c2ncc(F)cc2C(F)F)C=C(C#N)C(=O)C2(CC2)C1 (single isomer, unassigned) [Compound 63]"
  obs value: 0.018
- compound: "COc1ccccc1-c1cccc(C2(OC)C=C(C#N)C(=O)C(C)(C)C2)n1 (stereo not shown) [Compound 120]"
  obs value: 0.245
- compound: "COC1(c2ncc(F)cc2-c2cncc(C(F)(F)F)c2)C=C(C#N)C(=O)C(C)(C)C1 (single isomer, unassigned) [Compound 87]"
  obs value: 0.017
- compound: "COC1(c2ncc(F)cc2-c2cncc(C#N)c2)C=C(C#N)C(=O)C(C)(C)C1 (single isomer, unassigned) [Compound 85]"
  obs value: 0.006
- compound: "COC1(c2ncc(F)cc2-c2ccn3ncnc3c2)C=C(C#N)C(=O)C(C)(C)C1 (stereo not shown) [Compound 188]"
  obs value: 0.023
- compound: "COC1(c2ncc(F)cc2C(F)(F)F)C=C(C#N)C(=O)C(C)(C)C1 (stereo not shown) [Compound 151]"
  obs value: 0.034
- compound: "COC1(c2cccc(-c3c(C)noc3C)n2)C=C(C#N)C(=O)C2(CC2)C1 (single isomer, unassigned) [Compound 52]"
  obs value: 0.074
- compound: "COC1(c2cccc(-c3ccnn3C)n2)C=C(C#N)C(=O)C2(CC2)C1 (stereo not shown) [Compound 129]"
  obs value: 0.136
- compound: "COC1(c2ncc(F)cc2-c2cnn(-c3ccccc3)c2)C=C(C#N)C(=O)C(C)(C)C1 (stereo not shown) [Compound 179]"
  obs value: 0.007
- compound: "COC1(c2ncc(F)cc2-c2ccns2)C=C(C#N)C(=O)C(C)(C)C1 (stereo not shown)"
  obs value: 0.052
- compound: "COC1(c2ncc(C)cn2)C=C(C#N)C(=O)C(C)(C)C1 (single isomer, unassigned)"
  obs value: 0.009
- compound: "COC1(c2nc(C)c(-c3ccccn3)s2)C=C(C#N)C(=O)C2(CC2)C1 (single isomer, unassigned) [Compound 102]"
  obs value: 0.073
- compound: "COC1(c2ncc(F)cc2-c2cnccc2C#N)C=C(C#N)C(=O)C(C)(C)C1 (single isomer, unassigned)"
  obs value: 0.012
- compound: "COC1(c2ncc(F)cc2-c2cnn(-c3ccccc3)c2)C=C(C#N)C(=O)C(C)(C)C1 (single isomer, unassigned) [Compound 81]"
  obs value: 0.002
- compound: "COC1(c2ncc(F)cc2C(F)F)C=C(C#N)C(=O)C2(CC2)C1 (stereo not shown) [Compound 196]"
  obs value: 0.046
- compound: "COC1(c2cccc(-c3cccnc3)n2)C=C(C#N)C(=O)C(C)(C)C1 (stereo not shown)"
  obs value: 0.382
- compound: "COC1(c2cccc(-c3cnn(C)c3)n2)C=C(C#N)C(=O)C(C)(C)C1 (stereo not shown) [Compound 111]"
  obs value: 0.065
- compound: "COC1(c2cccc(-c3cncnc3)n2)C=C(C#N)C(=O)C2(CC2)C1 (single isomer, unassigned) [Compound 51]"
  obs value: 0.048
- compound: "CO[C@]1(c2ncsc2C)C=C(C#N)C(=O)C(C)(C)C1"
  obs value: 0.132
- compound: "COC1(c2ncc(F)cc2-c2cn(C)nc2C)C=C(C#N)C(=O)C(C)(C)C1 (single isomer, unassigned) [Compound 78]"
  obs value: 0.002
- compound: "COC1(c2ncc(F)cc2-c2cncc(Cl)c2)C=C(C#N)C(=O)C(C)(C)C1 (single isomer, unassigned) [Compound 88]"
  obs value: 0.009
